- METHOD SUMMARY: Activity at beta-galactosidase in Bacillus subtilis
*1 amine or outer side, *2 acyl side, *3 side chain or, on linkers, in order; H or OH if unused. Where a SMILES comes first, the peptide text is derived from it. [ ]: non-standard residue; d: D form. X1 = CC(C)=CCC/C(C)=C\C[C@@]12c3ccccc3N[C@@H]1N([*:1])C[C@@H]2C(=O)[*:2]
PROPERTY MEASURED: EC50 (nM)
Numbers only, in nM.

Use these answered entries as a reference point.
CC[C@H](C)[C@H](NC(=O)CN)C(=O)N[C@@H](Cc1ccccc1)C(=O)N1C[C@H](C(=O)N[C@@H](CCC(=O)O)C(=O)N[C@@H](C)C(=O)O)[C@]2(C/C=C(/C)CCC=C(C)C)c3ccccc3N[C@H]12 (H-GIF[X1]EA-OH) = 20
CC[C@H](C)[C@H](NC(=O)CN)C(=O)N[C@@H](C)C(=O)N1C[C@H](C(=O)N[C@@H](CCC(=O)O)C(=O)N[C@@H](CCC(N)=O)C(=O)O)[C@]2(C/C=C(/C)CCC=C(C)C)c3ccccc3N[C@H]12 (H-GIA[X1]EQ-OH) = 20
CC(C)=CCC/C(C)=C\C[C@@]12c3ccccc3N[C@@H]1N(C(=O)[C@@H](N)Cc1ccccc1)C[C@@H]2C(=O)N[C@@H](CCC(=O)O)C(=O)N[C@@H](CCC(N)=O)C(=O)O = 8

Then this molecule:
Short answer for `CC[C@H](C)[C@H](NC(=O)[C@@H](C)N)C(=O)N[C@@H](Cc1ccccc1)C(=O)N1C[C@H](C(=O)N[C@@H](CCC(=O)O)C(=O)N[C@@H](CCC(N)=O)C(=O)O)[C@]2(C/C=C(/C)CCC=C(C)C)c3ccccc3N[C@H]12` : EC50 was 3
